Where these numbers come from: paper PMC4278837

molecular target: T1, muPA-S190A (murine); assay: enzyme inhibition (steady state, chromogenic substrate S-2444); about 2 nM enzyme (purified or conditioned medium of transfected cells) pre-incubated 15 min with varied peptide in HBS (10 mM HEPES pH 7.4, 140 mM NaCl) with 0.1% BSA at 37°C; substrate about KM; fit for competitive inhibition; highest peptide concentration 400 µM
T1 construct: site directed mutant of full length muPA; numbers count on: chymotrypsin numbering; Two-chain form after plasmin; source: HEK293 6E, transfected; treated with plasmin
Bridge positions count the residues as written; N and C are the ends. Square brackets hold non-standard residues; d marks the D form. Ends that are not written are not given here. Ala(1-amidino-4-piperidyl) = N=C(N)N1CCC(C[C@H](N)C(=O)O)CC1; Phe(4-guanidino) = N=C(N)Nc1ccc(C[C@H](N)C(=O)O)cc1
recorded-metric: Ki (nM)

>  <binder>
CPAYS[Ala(1-amidino-4-piperidyl)]YLAC (disulfide 1-10; not fully specified) [Mupain-1-16 D9A]

>  <numeric-result>
529

$$$$
>  <binder>
CPAYS[Phe(4-guanidino)]YLDC (disulfide 1-10) [mupain-1-12]

>  <numeric-result>
2300

$$$$
>  <binder>
CPAYS[Ala(1-amidino-4-piperidyl)]YLDC (disulfide 1-10; not fully specified) [mupain-1-16]

>  <numeric-result>
352

$$$$
